read-out: Macrophage colony-stimulating factor (MCSF), CSF1 (gene 1435); test: BSK_hDFCGF_MCSF: BioMAP Diversity Plus: hDFCGF Assay for Macrophage colony-stimulating factor (MCSF) Biomarker Activity (AID 2283060); conditions: primary human foreskin fibroblasts; actives raise or lower the signal
Activity calls are given as the source filed them. The calls were made as follows: active = hit-call score of the fitted dose curve at least 0.9, where 1 is the maximum; inactive = score below 0.9.
Outcome codes: active, inactive

| compound | category.label |
| --- | --- |
| CCCCC(CC)COC(=O)c1ccccc1C(=O)O (centres undefined) | active |
| O=C(O)C1(C(=O)Nc2ccc(Cl)cc2Cl)CC1 | inactive |
| COC(=O)c1ccccc1S(=O)(=O)NC(=O)Nc1nc(OC(F)F)cc(OC(F)F)n1 | inactive |
| COCCO | inactive |
